# System: NCI-H929 complex spheroids, viability % test/control
# PROTOCOL_DESCRIPTION: Anticancer human tumor NCI-H929 cell line growth inhibition [RAS];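 note: compound exposure lasted seven days before viability was read; 100% = DMSO vehicle control viability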
# ASSAY_CONDITIONS: second compound 1 µM; first compound 3.16 µM; active compounds read low
OBSERVABLE: viability, T/C (%)
A number alone suffices; assume %.

QUERY: # query: viability, T/C of entry CC(C)NCC(C(=O)N1CCN(c2ncnc3c2C(C)CC3O)CC1)c1ccc(Cl)cc1 (stereo not given) + C=CC(=O)N1CCN(c2nc(OCC3CCCN3C)nc3c(F)c(-c4nc(N)cc(C)c4C(F)(F)F)c(Cl)cc23)C(C)C1
RESULT: 56.3

QUERY: Query CC(Nc1ccc2c(c1)OCCn1cc(N3C(=O)OCC3C(F)F)nc1-2)C(N)=O (stereo not given) + C=CC(=O)N1CCN(c2nc(OCC3CCCN3C)nc3c(F)c(-c4nc(N)cc(C)c4C(F)(F)F)c(Cl)cc23)C(C)C1 next
RESULT: 110

QUERY: Would you kindly repeat that for CC(=O)OC12COC1CC(O)C1(C)C(=O)C(O)C3=C(C)C(OC(=O)C(O)C(NC(=O)OC(C)(C)C)c4ccccc4)CC(O)(C(OC(=O)c4ccccc4)C21)C3(C)C (stereo not given) + C#Cc1c(F)ccc2cc(O)cc(-c3ncc4c(N5CC6CCC(C5)N6)nc(OCC56CCCN5CC(F)C6)nc4c3F)c12 ?
RESULT: 1.33

QUERY: Would you mind doing CC(=O)OC12COC1CC(O)C1(C)C(=O)C(O)C3=C(C)C(OC(=O)C(O)C(NC(=O)OC(C)(C)C)c4ccccc4)CC(O)(C(OC(=O)c4ccccc4)C21)C3(C)C (stereo not given) + C=CC(=O)N1CCN(c2nc(OCC3CCCN3C)nc3c(F)c(-c4nc(N)cc(C)c4C(F)(F)F)c(Cl)cc23)C(C)C1 as well?
RESULT: 1.43

QUERY: Would you kindly repeat that for CCC(CC)c1cc(NC2CCC(N)C2)n2nccc2n1 (stereo not given) + C#Cc1c(F)ccc2cc(O)cc(-c3ncc4c(N5CC6CCC(C5)N6)nc(OCC56CCCN5CC(F)C6)nc4c3F)c12 ?
RESULT: 0.22
